The measurements presented in this section are drawn from ChEMBL document CHEMBL3507680.

Reported values of cytotoxicity at 70.5 h for individual entries
Test: Human HepG2 cell viability assay in 384 well format
Type: toxicity, cell-based
Set-up: dose 125 nL, time 70.5 hour; concentration not given beside the values
Conditions: HepG2 cells, read-out: Inhibition
Give just the number in %; leave the unit off.

Please review the entries below; each comes with its answer.
Cc1ncc(CNC(=O)NC2CCN(C3CCCC3)CC2)s1 = -6.29
O=S(=O)(C1CC1)N1CCc2ncnc(-c3ccncc3)c2CC1 = -0.987
Cc1cnc(CN(C)C2CCN(CC(=O)N(C)c3nccs3)C2)o1 (configuration not stated) = 42.1

Request: Data request, read-out cytotoxicity at 70.5 h, for CC[C@H]1CN(S(C)(=O)=O)CC[C@H]1CC(=O)NCCOC
Response: 9.53

---

Assay: Human HepG2 cell viability assay in 384 well format
Format: toxicity, cell-based
Parameters: dose 125 nL, time 70.5 hour; concentration not given beside the values
Settings: HepG2 cells, read-out: Inhibition
value-type: cytotoxicity at 70.5 h (%)
Numeric only. Scale: %

Worked cases, cytotoxicity at 70.5 h given:
Cc1nnc(C2Cc3ccccc3CN2Cc2nc(C3CC3)no2)o1 (stereo not drawn) = -5.34
CCCNC(=O)c1sc(Nc2ccc(Cl)cn2)nc1C = -5
Cn1nc(C(=O)NCc2ccc(F)cc2)c2c1CCS(=O)(=O)C2 = -6.3
CN(C)C[C@H]1C[C@@H]2CN(C(=O)c3ccno3)C[C@@H]2O1 = -16.7
O=C(Cc1cccc(F)c1)N1CCn2cc(Cn3cccn3)nc2C1 = -10.7

Request: Quick one: cytotoxicity at 70.5 h for Cc1nn(CC(C)C)c(N(C)C)c1CNCc1ccnn1C ?
Response: 28.6

Request: Quick check: cytotoxicity at 70.5 h of Cc1cc(CC(C)Nc2ncc(C)c(N(C)C)n2)[nH]n1 (stereo not drawn) ?
Response: -1.49

---

Listed compounds paired with reported cytotoxicity at 70.5 h
Test: Human HepG2 cell viability assay in 384 well format
Type: toxicity, cell-based
Parameters: dose 125 nL, time 70.5 hour; concentration not given beside the values
Conditions: HepG2 cells, read-out: Inhibition
Give the value in % but do not write % after it.

Request: If you can, please state the reported cytotoxicity at 70.5 h value of Cc1ccc2c(ccn2CCC(=O)N2CCC(C(N)=O)CC2)c1 .
Response: -21.3

Request: Recorded cytotoxicity at 70.5 h of N[C@H]1CC[C@@H](n2cc(C(=O)NC3CCc4ccccc4C3)nn2)CC1 (some centres not stated) , please.
Response: -11.5

Request: Recorded cytotoxicity at 70.5 h for CC(C)CCN1CC2(CCN(C(=O)C3(C)CCCCO3)CC2)OC1=O (configuration not stated) , please?
Response: 49.2

Request: Form field: reported cytotoxicity at 70.5 h of Cc1nc(CN2CCCN(C(=O)c3ccccn3)CC2)oc1C
Response: -10.4

Request: Which cytotoxicity at 70.5 h is listed for CN(CC(=O)Nc1cc(CC2CCCCC2)n[nH]1)S(C)(=O)=O ?
Response: -4.16

Request: Endpoint output: cytotoxicity at 70.5 h of OC[C@H]1CN(Cc2c(Cl)cccc2Cl)C[C@H]1CN1CCCCC1 . Value?
Response: 7.58

Request: Reported cytotoxicity at 70.5 h for O=C(C1CCOC1)N1CC[C@@H](O)[C@@H]1Cc1ccccc1 (some centres not stated) : what is it?
Response: -12.1

---

Overview of recorded cytotoxicity at 70.5 h for various compounds
Assay: Human HepG2 cell viability assay in 384 well format
Type: toxicity, cell-based
Design: dose 125 nL, time 70.5 hour; concentration not given beside the values
Conditions: HepG2 cells, read-out: Inhibition
Return type: number; implicit unit %.

Solved cases below.
COc1cccc(CNCc2nc3ccccc3c(=O)[nH]2)c1 = 1.76
O=C1COC2(CCN(C(=O)c3cnccn3)CC2)CN1CC1CC1 = 18.8
CN(C)c1cc(C(=O)NCC2(c3ccc(F)cc3)CC2)ccn1 = -1.65
CC(C)(CNC(=O)c1ccco1)NC(=O)OC(C)(C)C = -12.7
c1cc(OCc2ccc3c(c2)OCCO3)ccc1CNC1CC1 = 22.8

Request: Consider the compound O=C(Nc1cccnc1-n1cncn1)C1CCC1 and give its measured cytotoxicity at 70.5 h.
Response: -22.6

Request: So what does the record say about cytotoxicity at 70.5 h for CC(C)c1nnc2n1CCN(C(C)c1nnc(-c3cccs3)o1)C2 (stereo not drawn) ?
Response: -3.01

Request: What measured cytotoxicity at 70.5 h goes with CC(=O)N1CCCC1c1ccc(-c2c(C)noc2C)cn1 (stereo not drawn) ?
Response: -9.29

---

Experiment: Human HepG2 cell viability assay in 384 well format
Assay type: toxicity, cell-based
Parameters: dose 125 nL, time 70.5 hour; concentration not given beside the values
Details: HepG2 cells, read-out: Inhibition
value-type: cytotoxicity at 70.5 h (%)
Please state the figure in %; there is no need to write the unit.

These recorded examples may help you get a feel for the data.
CCc1cnc(CN(C)C(=O)NC2CCN(C)C2=O)s1 (stereo unspecified) = -7.59
CC1N(C)C(=O)COC12CCN(C(=O)CCc1ccccc1)CC2 (stereo unspecified) = 5.92
Cc1cc(C)n(CC(C)NC(=O)C2(c3ccccc3F)CC2)n1 (stereo unspecified) = -7.8
FC(F)CN1CCC(NCCc2ccc(-n3cccn3)cc2)CC1 = -5.54
c1ccc(-c2cc(CN3CCc4cncnc4C3)on2)cc1 = -4.72

Request: Can you look up the measured cytotoxicity at 70.5 h of CNC(=O)[C@@H]1C[C@@H](N)CN1C(=O)CCSCc1ccccc1 for me?
Response: -4.11

Request: So what's the measured cytotoxicity at 70.5 h for this one? Cc1n[nH]c(C2CN(C(=O)COCC(F)(F)F)CCO2)n1 (stereo unspecified)
Response: -5.9

---

Assay: Human HepG2 cell viability assay in 384 well format
Assay type: toxicity, cell-based
Parameters: dose 125 nL, time 70.5 hour; concentration not given beside the values
Settings: HepG2 cells, read-out: Inhibition
Catalogue of molecules with associated cytotoxicity at 70.5 h
The reply should contain only the number, in %.

Below, 2 molecules whose answers are already recorded.
Cc1cc(NCCO)nc(N2CCC(Cc3ccccc3)CC2)c1C#N = 0.669
CN(CCC(O)c1ccccc1)Cc1ccccc1C#N (configuration not stated) = -5.67

Request: I have this molecule here, O=C(Cc1ccsc1)NCC1Cn2nnc(-c3ccoc3)c2CO1 (configuration not stated) , and I need its recorded cytotoxicity at 70.5 h.
Response: -4.44

Request: Which cytotoxicity at 70.5 h reading was recorded for the molecule CCN1C[C@H]2CCN(C(C)=O)CC[C@H]2S1(=O)=O ?
Response: -14.5

Request: Could you share which cytotoxicity at 70.5 h value was measured for CC(C)Cc1ncc2c(n1)CN(c1cc(N)nc(N)n1)C2 ?
Response: -1.3

Request: Bench note: what cytotoxicity at 70.5 h did O=C(C1CCCN1S(=O)(=O)C1CCCC1)N1CCSCC1 (configuration not stated) show?
Response: -5.09

Request: Item under review: COc1cc(CNc2ccccc2Cl)ccc1OCC(=O)O . Reported cytotoxicity at 70.5 h?
Response: 19

Request: Look up cytotoxicity at 70.5 h: COc1ccccc1CC(=O)N1CCN(Cc2ccco2)C[C@@H]1C
Response: -2.18

---

Experiment: Human HepG2 cell viability assay in 384 well format
Assay type: toxicity, cell-based
Parameters: dose 125 nL, time 70.5 hour; concentration not given beside the values
Settings: HepG2 cells, read-out: Inhibition
List of cytotoxicity at 70.5 h values.
Write the value in % as a bare number.

Examples with answers:
Cc1n[nH]c(=O)c2c(NC(=O)CN3CCOCC3)oc(C)c12 = -8.38
O=C(CCc1c(F)cccc1F)N1CCCCC1Cn1cccn1 (stereo not given) = 1.38
Cc1cccc(OCC(O)CN2CCC(c3ccn[nH]3)CC2)c1 (stereo not given) = -0.803
COc1cnc(N2CCC(Oc3ccccc3OC)(C(=O)O)CC2)nc1 = -3.07

Request: What value of measured cytotoxicity at 70.5 h is listed for CC(C)c1nccn1C(C)C(=O)NCc1noc(Cc2cccs2)n1 (stereo not given) ?
Response: 21.9

---

Experiment: Human HepG2 cell viability assay in 384 well format
Type: toxicity, cell-based
Parameters: dose 125 nL, time 70.5 hour; concentration not given beside the values
Details: HepG2 cells, read-out: Inhibition
value-type: cytotoxicity at 70.5 h
Write the numeric value and append its unit.

Use these answered entries as a reference point.
CS(=O)(=O)NCCC(=O)NC1(c2ccc(F)cc2)CCCC1 = -6.92%
CCOC(=O)[C@]12CCCN(Cc3cccs3)C[C@H]1CN(CC(C)C)C2 = -2.32%
O=C(Nc1ccc(-c2cnc(NCCO)nc2)cc1)[C@@H]1CCCCN1 = -3.46%

Read the next record carefully.
Request: // returns reported cytotoxicity at 70.5 h for input COc1ccc(C(=O)N2CCOC(Cc3cccc(C(F)(F)F)c3)C2)o1 (configuration not stated)
Response: -7.8%
